From: PubChem BioAssay (Tox21)

experiment: qHTS assay for small molecule agonists of the antioxidant response element (ARE) signaling pathway - cell viability counter screen (AID 743203); details: ARE-bla HepG2 viability, CellTiter-Glo luminescence, 16 h; series mostly up to 73.3 µM; note: nearly all actives have a fitted effect of over 55% in size
Inconclusive results are not listed. The source made the active and inactive calls. Calls come from the whole dose curve.
// one of active, inactive, no free text

Check the results log: what was the call for "ON=C1CCCC1" ?
inactive

Answer briefly: the call reported for "O=c1[nH]sc2ccccc12" in this assay.
active

Could you check what this test reported for "Cc1c(C)c2c(c(C)c1OC(=O)CCC(=O)O)CC[C@@](C)(CCC[C@H](C)CCC[C@H](C)CCCC(C)C)O2" ?
inactive

# lookup: test call for "O=C(Nc1cccc([N+](=O)[O-])c1)c1cc2ccccc2cc1O"
inactive

Just curious, what result did "O=c1[nH]sc2cc(Cl)ccc12" get here?
inactive

Could you check what this test reported for CC(C)OC(=O)c1cc2c(OCC(O)CNC(C)(C)C)cccc2[nH]1 (stereo not given) ?
inactive

Could you check what this test reported for "CC(C)(C)CC(C)(C)c1ccc(O)c(Cc2ccc(Cl)cc2Cl)c1" ?
active

Recorded test outcome, item "CCC(N)(CO)CO"
inactive

Which outcome did this test record for the compound "C[C@]12CCC(=O)C=C1CC[C@@H]1[C@@H]2[C@@H](O)C[C@@]2(C)[C@H]1CC[C@]2(O)C(=O)COC(=O)CCC(=O)O" ?
inactive

Given "N=C1N=C(N)c2cc3ccccc3cc21" , state the outcome it received in this test.
active

Test call for this compound, please: "Clc1ccccc1C(c1ccccc1)(c1ccccc1)n1ccnc1"
active

Hi, sorry to bother you, what did the test record for CCC(Cl)C(Cl)C(Cl)CC(Cl)C(Cl)C(C)Cl (stereo not given) ?
inactive

Which result was noted for this compound in the test: "C=CC(=O)OCC(CO)(COCC(COC(=O)C=C)(COC(=O)C=C)COC(=O)C=C)COC(=O)C=C"
active

Fill in: this test's call for CC1=NC(C)OC1C (stereo not given) is ___
inactive

Status in this test for "O=C(Nc1cccc(Cl)c1)OCC#CCCl" ?
active
